Assayed Target: UniProt:P51532
Sequence (P51532 whole entry): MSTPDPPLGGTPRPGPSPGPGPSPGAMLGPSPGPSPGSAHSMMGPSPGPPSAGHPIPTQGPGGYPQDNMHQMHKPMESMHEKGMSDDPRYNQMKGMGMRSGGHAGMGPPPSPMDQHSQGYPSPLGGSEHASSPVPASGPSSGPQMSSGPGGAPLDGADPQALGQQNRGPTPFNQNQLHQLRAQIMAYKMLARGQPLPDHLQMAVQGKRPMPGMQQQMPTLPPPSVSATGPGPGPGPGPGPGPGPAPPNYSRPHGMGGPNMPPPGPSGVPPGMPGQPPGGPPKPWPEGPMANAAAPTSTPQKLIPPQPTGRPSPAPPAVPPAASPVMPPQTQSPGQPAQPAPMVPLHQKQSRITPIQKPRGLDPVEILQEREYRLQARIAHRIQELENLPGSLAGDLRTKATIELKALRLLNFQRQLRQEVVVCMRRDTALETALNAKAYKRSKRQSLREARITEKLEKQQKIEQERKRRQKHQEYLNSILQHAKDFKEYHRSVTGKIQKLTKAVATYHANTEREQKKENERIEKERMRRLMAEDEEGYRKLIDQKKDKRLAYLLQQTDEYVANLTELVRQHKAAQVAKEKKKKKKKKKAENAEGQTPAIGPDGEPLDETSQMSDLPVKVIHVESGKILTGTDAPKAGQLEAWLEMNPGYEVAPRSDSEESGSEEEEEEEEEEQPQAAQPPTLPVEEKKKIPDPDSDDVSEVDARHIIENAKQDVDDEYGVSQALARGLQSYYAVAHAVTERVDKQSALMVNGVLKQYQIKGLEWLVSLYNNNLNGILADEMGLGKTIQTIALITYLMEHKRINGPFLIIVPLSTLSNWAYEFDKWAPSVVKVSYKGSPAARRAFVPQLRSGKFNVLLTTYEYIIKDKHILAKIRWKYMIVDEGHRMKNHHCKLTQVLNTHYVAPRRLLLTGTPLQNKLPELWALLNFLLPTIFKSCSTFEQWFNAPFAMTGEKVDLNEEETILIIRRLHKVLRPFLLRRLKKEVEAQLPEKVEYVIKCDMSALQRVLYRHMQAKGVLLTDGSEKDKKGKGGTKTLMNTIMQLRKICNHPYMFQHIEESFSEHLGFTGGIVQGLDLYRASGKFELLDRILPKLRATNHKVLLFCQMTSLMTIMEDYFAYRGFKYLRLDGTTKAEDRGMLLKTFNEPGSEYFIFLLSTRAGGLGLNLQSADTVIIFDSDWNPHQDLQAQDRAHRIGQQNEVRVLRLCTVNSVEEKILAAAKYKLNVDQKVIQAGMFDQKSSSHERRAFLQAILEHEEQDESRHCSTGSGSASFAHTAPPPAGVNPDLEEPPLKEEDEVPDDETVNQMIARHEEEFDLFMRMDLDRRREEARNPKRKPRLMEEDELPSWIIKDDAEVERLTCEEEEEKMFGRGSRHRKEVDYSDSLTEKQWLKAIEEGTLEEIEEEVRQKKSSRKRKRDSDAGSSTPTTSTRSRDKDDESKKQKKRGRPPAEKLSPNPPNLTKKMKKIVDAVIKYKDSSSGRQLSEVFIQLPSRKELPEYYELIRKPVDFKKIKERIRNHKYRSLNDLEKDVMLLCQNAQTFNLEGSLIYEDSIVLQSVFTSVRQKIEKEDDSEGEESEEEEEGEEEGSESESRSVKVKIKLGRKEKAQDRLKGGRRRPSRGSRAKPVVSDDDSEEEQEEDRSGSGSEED
Run Description: ATPase catalytic activity assay of BRG-1 (ADP-Glo)
Assay type: biochemical
Test Conditions: ATPase catalytic activity, ADP-Glo; read-out: BRG1 Max % Inhibition
Property: Emax

Below, 3 compounds whose answers are already recorded.
> print(dat)
                                   compound  property  readout.value
1  C[C@@H](CO)S(=O)(=O)c1cccc(C(=O)NCC(=O)Nc2nc(-c3cccc(-c4ccncc4)c3)cs2)c1 [Compound 115]      Emax          > 95%
2  C[C@@]1(C#N)COCc2ccc(C(=O)NCC(=O)Nc3nc(-c4cccc(N5CC6(CCO6)C5)c4)cs3)cc21 [Compound 348]      Emax          > 95%
3  COc1cccc(-c2csc(NC(=O)CNC(=O)c3ccc4c(c3)C(C)(C#N)CCN4C)n2)c1 (stereo not shown) [Compound 394]      Emax          > 80%

Ask: Consider the compound C[C@@H]1CN(c2cccc(-c3csc(NC(=O)CNC(=O)c4ccc5c(c4)S(=O)(=O)CCCC5)n3)c2)C[C@H](C)O1 [Compound 128] and give its measured Emax.
Result: > 95%

* * *

Assayed Target: BRM (Homo sapiens)
Run Description: ATPase catalytic activity assay of BRM (ADP-Glo)
Assay type: biochemical
Test Conditions: read-out: BRM IC50 (μM)*
Property: IC50

Below, 3 compounds whose answers are already recorded.
> print(dat)
                                   compound  property  readout.value
1  COc1cc(-c2csc(NC(=O)CNC(=O)c3ccc4c(c3)[C@](C)(C#N)COC4)n2)ccc1F      IC50       < 0.1 µM
2  Cc1cc(-c2cccc(-c3csc(NC(=O)CNC(=O)c4cccc(S(=O)(=O)C(C)C)c4)n3)c2)cc(C)n1      IC50       < 0.1 µM
3  CSCC[C@H](NC(=O)c1ccc2c(c1)C(C)(O)C(=O)N2)C(=O)Nc1nc(-c2ccccc2)cs1 (stereo partly shown)      IC50         > 5 µM

Now examine the next entry.
Ask: Consider the compound `C[C@@]1(C#N)COCc2ccc(C(=O)NCC(=O)Nc3nc(-c4cccc([C@]56CCOC[C@H]5C6)c4)cs3)cc21` and give its measured IC50.
Result: < 0.1 µM

* * *

Assayed Target: BRM (Homo sapiens, UniProt P51531)
Sequence (P51531 whole entry): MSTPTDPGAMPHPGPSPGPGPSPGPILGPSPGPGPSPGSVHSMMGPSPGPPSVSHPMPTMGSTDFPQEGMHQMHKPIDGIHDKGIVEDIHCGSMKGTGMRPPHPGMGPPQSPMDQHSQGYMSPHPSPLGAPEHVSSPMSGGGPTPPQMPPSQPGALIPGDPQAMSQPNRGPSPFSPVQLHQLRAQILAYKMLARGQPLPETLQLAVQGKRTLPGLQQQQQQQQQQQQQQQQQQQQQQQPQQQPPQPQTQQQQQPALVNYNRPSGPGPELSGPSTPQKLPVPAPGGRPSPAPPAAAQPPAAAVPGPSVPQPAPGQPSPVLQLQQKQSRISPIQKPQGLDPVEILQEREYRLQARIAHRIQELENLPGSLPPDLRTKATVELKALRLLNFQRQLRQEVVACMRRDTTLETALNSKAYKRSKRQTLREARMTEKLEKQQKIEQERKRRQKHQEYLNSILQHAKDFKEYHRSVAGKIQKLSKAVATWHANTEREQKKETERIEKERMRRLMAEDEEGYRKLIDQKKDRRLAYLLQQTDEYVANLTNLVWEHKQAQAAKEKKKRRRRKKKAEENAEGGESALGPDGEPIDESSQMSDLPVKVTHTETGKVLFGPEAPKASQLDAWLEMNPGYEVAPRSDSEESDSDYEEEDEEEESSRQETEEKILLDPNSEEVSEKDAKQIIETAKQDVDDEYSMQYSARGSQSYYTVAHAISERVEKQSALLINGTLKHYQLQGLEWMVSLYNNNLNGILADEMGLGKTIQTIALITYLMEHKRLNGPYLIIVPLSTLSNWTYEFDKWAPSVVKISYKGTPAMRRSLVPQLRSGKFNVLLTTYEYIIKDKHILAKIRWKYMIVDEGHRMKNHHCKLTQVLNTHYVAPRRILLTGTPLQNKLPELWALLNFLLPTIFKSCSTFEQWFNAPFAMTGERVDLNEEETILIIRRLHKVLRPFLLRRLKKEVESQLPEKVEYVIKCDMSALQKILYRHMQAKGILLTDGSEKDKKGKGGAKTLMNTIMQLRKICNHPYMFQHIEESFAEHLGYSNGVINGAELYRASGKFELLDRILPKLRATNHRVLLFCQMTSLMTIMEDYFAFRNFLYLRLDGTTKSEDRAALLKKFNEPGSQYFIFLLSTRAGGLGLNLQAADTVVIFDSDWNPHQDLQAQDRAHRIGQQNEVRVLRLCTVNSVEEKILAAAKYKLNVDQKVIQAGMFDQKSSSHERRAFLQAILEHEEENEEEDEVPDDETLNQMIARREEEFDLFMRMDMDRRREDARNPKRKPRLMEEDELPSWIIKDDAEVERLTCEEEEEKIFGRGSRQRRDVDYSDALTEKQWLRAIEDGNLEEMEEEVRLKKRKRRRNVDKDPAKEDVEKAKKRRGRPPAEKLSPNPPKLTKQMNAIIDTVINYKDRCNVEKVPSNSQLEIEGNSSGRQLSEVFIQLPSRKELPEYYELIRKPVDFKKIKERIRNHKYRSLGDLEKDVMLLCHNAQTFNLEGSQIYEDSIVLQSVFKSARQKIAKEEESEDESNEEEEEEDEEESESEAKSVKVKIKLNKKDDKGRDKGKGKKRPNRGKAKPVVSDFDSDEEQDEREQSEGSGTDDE
Run Description: ATPase catalytic activity assay of BRM (ADP-Glo)
Format: biochemical
Property: BRM Max % Inhibition

Below, 5 compounds whose answers are already recorded.
> print(dat)
                                   compound  readout.value
1  C[C@@]1(F)COCc2ccc(C(=O)NCC(=O)Nc3nc(-c4cccc(N5CCC5)c4)cs3)cc21 [Compound 332]           >95%
2  C[C@@H]1CN(c2cccc(-c3csc(NC(=O)CNC(=O)c4ccc5c(c4)[C@@](F)(C(F)F)CCO5)n3)c2)C[C@H](C)O1 [Compound 275]           >95%
3  C[C@@H]1CN(c2cccc(-c3csc(NC(=O)CNC(=O)c4cccc(C5(O)COC5)c4)n3)c2)C[C@H](C)O1 [Compound 184]           >90%
4  C[C@@H]1CN(c2cccc(-c3csc(NC(=O)CNC(=O)c4ccc5c(c4)[C@](C)(C#N)CCO5)n3)c2)C[C@H](C)O1 [Compound 172]           >95%
5  CC(C)S(=O)(=O)c1cccc(C(=O)NCC(=O)Nc2nc(-c3cccc(-c4cc(C#N)cc(C#N)c4)c3)cs2)c1 [Compound 21]           >80%

Ask: Consider the compound Cc1cc(C(=O)NCC(=O)Nc2nc(-c3cccc(-c4ccncc4)c3)cs2)cc(S(=O)(=O)C(C)C)c1 [Compound 20] and give its measured BRM Max % Inhibition.
Result: >60%

Ask: Consider the compound C[C@]1(CO)CCc2ccc(C(=O)NCC(=O)Nc3nc(-c4ccn5ccnc5c4)cs3)cc21 [Compound 259] and give its measured BRM Max % Inhibition.
Result: >50%
